The measured values listed here are drawn from paper PMC12159506.

Some variants, each annotated with its measured response.
B1: SmBiT-C-CaSR-WT [not stated] / LgBiT-N-AP2σ-WT [not stated] (parent)
chain 1: not shown
chain 2: YGPDQRAQKKGDIILGGLFPIHFGVAAKDQDLKSRPESVECIRYNFRGFRWLQAMIFAIEEINSSPALLPNLTLGYRIFDTCNTVSKALEATLSFVAQNKIDSLNLDEFCNCSEHIPSTIAVVGATGSGVSTAVANLLGLFYIPQVSYASSSRLLSNKNQFKSFLRTIPNDEHQATAMADIIEYFRWNWVGTIAADDDYGRPGIEKFREEAEERDICIDFSELISQYSDEEEIQHVVEVIQNSTAKVIVVFSSGPDLEPLIKEIVRRNITGKIWLASEAWASSSLIAMPQYFHVVGGTIGFALKAGQIPGFREFLKKVHPRKSVHNGFAKEFWEETFNCHLQEGAKGPLPVDTFLRGHEESGDRFSNSSTAFRPLCTGDENISSVETPYIDYTHLRISYNVYLAVYSIAHALQDIYTCLPGRGLFTNGSCADIKKVEAWQVLKHLRHLNFTNNMGEQVTFDECGDLVGNYSIINWHLSPEDGSIVFKEVGYYNVYAKKGERLFINEEKILWSGFSREVPFSNCSRDCLAGTRKGIIEGEPTCCFECVECPDGEYSDETDASACNKCPDDFWSNENHTSCIAKEIEFLSWTEPFGIALTLFAVLGIFLTAFVLGVFIKFRNTPIVKATNRELSYLLLFSLLCCFSSSLFFIGEPQDWTCRLRQPAFGISFVLCISCILVKTNRVLLVFEAKIPTSFHRKWWGLNLQFLLVFLCTFMQIVICVIWLYTAPPSSYRNQELEDEIIFITCHEGSLMALGFLIGYTCLLAAICFFFAFKSRKLPENFNEAKFITFSMLIFFIVWISFIPAYASTYGKFVSAVEVIAILAASFGLLACIFFNKIYIILFKPSRNTIEEVRCSTAAHAFKVAARATLRRSNVSRKRSSSLGGSTGSTPSSSISSKSNSEDPFPQPERQKQQQPLALTQQEQQQQPLTLPQQQRSQQQPRCKQKVIFGSGTVTFSLSFDEPQKNAMAHRNSTHQNSLEAQKSSDTLTRHEPLLPLQCGETDLDLTVQETGLQGPVGGDQRPEVEDPEELSPALVVSSSQSFVISGGGSTVTENVVNS

- Variants of: B1
- measurementDescription: NanoBiT split-luciferase
- testParameters: with LgBiT-N-AP2σ-WT; N = 7; read off a plot
Enter the number alone.

Guide cases for response, answers given:
mutantCode: chain 2 S985A
reportedResult: 4.9
//
mutantCode: chain 2 S959A
reportedResult: 4.8
//
mutantCode: chain 2 L994A L995A
reportedResult: 2.4
//
mutantCode: chain 2 T987A
reportedResult: 4.9

Turning now to a further variant:
Query: Which response is listed for chain 2 T989A ?
Response: 4.7
